molecular target: glutathione S-transferase (GST)-fused full-length human Syk protein (Homo sapiens, UniProt P43405); construct: (GST)-fused full-length human Syk protein; GST (glutathione S-transferase); purchased Carna Biosciences; experiment: Syk enzyme assay; format: biochemical; conditions: Syk enzyme assay, Test Example 1; read-out: IC50 of Syk-inhibitory activity
pIC50: −log10 of the molar value.
assay_readout: pIC50

// query Entry under review: "COc1ccc(-c2cncc(Nc3nc(N[C@@H](CN)CC(C)C)c(F)cc3C(N)=O)c2)cc1" . Reported pIC50?
// result 7.30 to 8.00

// query Repeat with "NC(=O)c1cc(F)c(N[C@@H]2CCCC[C@@H]2N)nc1Nc1ccnc2c1ccn2CC1CC1"
// result > 8.00

// query Another compound to look at: "CCOc1ncc(Nc2nc(N[C@@H]3CCCC[C@@H]3N)c(F)cc2C(N)=O)cc1-n1ccnn1"
// result > 8.00

// query Field entry: "CC(=O)Nc1cccc(-c2cncc(Nc3nc(N[C@@H]4CCCC[C@@H]4N)c(F)cc3C(N)=O)c2)c1"
// result > 8.00

---

tested on: THP-1 cells; test: TNFα generation assay; type: cell-based, human; settings: Homo sapiens, THP-1, THP-1 cells; Table 22; read-out: IC50 in TNFα generation assay
pIC50: −log10 of the molar value.
assay_readout: pIC50

// query Look up pIC50 for this molecule: "CCC[C@@H](Nc1nc(Nc2cccc3c2cnn3C)c(C(N)=O)cc1F)[C@H](C)N"
// result > 7.19

// query And then "NC(=O)c1cc(F)c(N[C@@H]2CCCC[C@@H]2N)nc1Nc1cnc(-n2cccn2)c(F)c1" , what is it?
// result 6.70 to 6.89

// query Then this molecule: "NC(=O)c1cc(F)c(N[C@@H]2CCCC[C@@H]2N)nc1Nc1cncc(-n2nccn2)c1"
// result 6.89 to 7.19

// query What about "COC[C@@H](Nc1nc(Nc2ccc3ncccc3c2)c(C(N)=O)cc1F)[C@H](C)N" ?
// result > 7.19

// query Now the same for "CCOc1ncc(Nc2nc(N[C@@H]3CCCC[C@@H]3N)c(F)cc2C(N)=O)cc1-n1ccnn1"
// result 6.89 to 7.19

// query Can you handle "C=C(C)C[C@@H](Nc1nc(Nc2ccc3ncccc3c2)c(C(N)=O)cc1F)[C@H](C)N" next?
// result 6.89 to 7.19

// query Note, next up: NC(=O)c1cc(F)c(NC2CCCCC2N)nc1Nc1cncc2ccccc12 (centres unmarked)
// result > 7.19

// query Try the molecule "COc1nccc(Nc2nc(N[C@@H]3CCCC[C@@H]3N)c(F)cc2C(N)=O)c1F"
// result 6.89 to 7.19

---

For each of the molecules below, state its IC50.
biological target: glutathione S-transferase (GST)-fused full-length human Syk protein (Homo sapiens, UniProt P43405); construct: (GST)-fused full-length human Syk protein; GST (glutathione S-transferase); purchased Carna Biosciences; test: Syk enzyme assay; assay type: biochemical; conditions: Syk enzyme assay, Test Example 1; read-out: IC50 of Syk-inhibitory activity

// query # get_value(readout='IC50', item= "CC(C)C[C@H](CN)Nc1nc(Nc2ccc3cccnc3c2)c(C(N)=O)cc1F" )
// result < 10 nM

// query Again, but for COCCOc1cnc2cc(Nc3nc(N[C@@H]4CCCC[C@@H]4N)c(F)cc3C(N)=O)ccc2n1 (relative stereo)
// result 10 to 50 nM

// query Next record, please: CC(N)CNc1nc(Nc2ccc3ncccc3c2)c(C(N)=O)cc1F (stereo not drawn)
// result < 10 nM

// query Now consider NC(=O)c1cc(F)c(N[C@@H]2CCCC[C@@H]2N)nc1Nc1ccnc(-n2ccnc2)c1 (relative stereo) and answer again.
// result 10 to 50 nM

// query Please give the result for Cn1cc2cccc(Nc3nc(N[C@@H]4CCCC[C@@H]4N)c(F)cc3C(N)=O)c2n1 (relative stereo) too.
// result 100 to 1000 nM

// query What do we get for C[C@H](N)[C@@H](C)Nc1nc(Nc2ccc3c(cnn3C)c2)c(C(N)=O)cc1F (racemic) ?
// result < 10 nM

// query Would you kindly repeat that for "Cc1nn(C)c2ccc(Nc3nc(N[C@H](C4CC4)[C@H](C)N)c(F)cc3C(N)=O)cc12" ?
// result < 10 nM

// query Quick one: Cc1nn(C)c2ccc(Nc3nc(NC4CCCCC4N)c(F)cc3C(N)=O)cc12 (stereo not drawn)
// result < 10 nM

// query What would you report for "CCC[C@@H](Nc1nc(Nc2ccc3nc(OCCOC)ccc3c2)c(C(N)=O)cc1F)[C@H](C)N" ?
// result < 10 nM

// query Now consider NC(=O)c1cc(F)c(N[C@@H]2CCCC[C@@H]2N)nc1Nc1ccc(Nc2ccccc2)nc1 (relative stereo) and answer again.
// result 10 to 50 nM

// query Now give it for NC(=O)c1cc(F)c(NC2CCCCC2N)nc1Nc1ccnc(-c2ccc3c(c2)OCO3)c1 (stereo not drawn) too.
// result < 10 nM

// query Subsequent entry: "Cn1cccc1-c1cncc(Nc2nc(NCCN)c(F)cc2C(N)=O)c1"
// result 100 to 1000 nM

// query Same lookup for "CC[C@@H](Nc1nc(Nc2cncc(F)c2)c(C(N)=O)cc1F)[C@H](C)N" , please.
// result 10 to 50 nM

// query Let us now turn to "Cn1ncc2cc(Nc3nc(N[C@@H]4CCCC[C@@H]4N)c(F)cc3C(N)=O)ccc21"
// result < 10 nM

// query Next record, please: CC[C@H](N)C(C)Nc1nc(Nc2ccc3ncccc3c2)c(C(N)=O)cc1F (stereo partly drawn)
// result 10 to 50 nM

---

For each record, write down the corresponding pIC50.
system: THP-1 cells; assay: TNFα generation assay; format: cell-based, human; settings: Homo sapiens, THP-1, THP-1 cells; Table 22; read-out: IC50 in TNFα generation assay
pIC50: −log10 of the molar value.

// query So what's the measured pIC50 for this one? "C[C@H](N)[C@@H](CC1CC1)Nc1nc(Nc2cncc(-n3cccn3)c2)c(C(N)=O)cc1F"
// result 6.89 to 7.19

// query Try this compound too: "Cc1cc(Nc2nc(N[C@H](C3CC3)[C@H](C)N)c(F)cc2C(N)=O)cnc1C"
// result > 7.19

// query Consider next the compound "CCC[C@@H](Nc1nc(Nc2ccc3c(cnn3C)c2)c(C(N)=O)cc1F)[C@@H](N)CC" in the same way.
// result 6.89 to 7.19

// query Would you kindly repeat that for "CCC[C@@H](Nc1nc(Nc2ccnc(-c3ccc(OC)cc3)c2)c(C(N)=O)cc1F)[C@H](C)N" ?
// result 6.70 to 6.89

// query And then CNc1cccc(-c2cncc(Nc3nc(N[C@@H]4CCCC[C@@H]4N)c(F)cc3C(N)=O)c2)c1 (relative stereo) , what is it?
// result 6.89 to 7.19

// query What do we get for NC(=O)c1cc(F)c(N[C@@H]2CCCC[C@@H]2N)nc1Nc1cnc2[nH]ccc2c1 (relative stereo) ?
// result > 7.19

// query Continue with "CCC[C@@H](Nc1nc(Nc2ccnc(-c3cccc(OC)c3)c2)c(C(N)=O)cc1F)[C@H](C)N"
// result 6.89 to 7.19

// query Thanks! And "CC[C@H](N)[C@@H](C)Nc1nc(Nc2ccc3c(cnn3CCOC)c2)c(C(N)=O)cc1F" ?
// result 6.89 to 7.19

// query How about this compound: "COc1ccc2cc(Nc3nc(N[C@@H](CN)CC4CC4)c(F)cc3C(N)=O)cnc2c1"
// result 6.89 to 7.19

// query Consider next the compound "CCn1nc(C(C)C)c2cc(Nc3nc(N[C@H](CC4CC4)[C@H](C)N)c(F)cc3C(N)=O)ccc21" in the same way.
// result 6.70 to 6.89

// query Quick one: CNc1ccc(Nc2nc(NC3CCCCC3N)c(F)cc2C(N)=O)cn1 (stereo not drawn)
// result 6.70 to 6.89

// query Quick one: "Cc1cc(Nc2nc(N[C@H](c3ccc(F)cc3)[C@H](C)N)c(F)cc2C(N)=O)cnc1C"
// result 6.89 to 7.19

// query Try this compound too: "NC(=O)c1cc(F)c(N[C@@H]2CCCC[C@@H]2N)nc1Nc1cncc(-c2cccnc2)c1"
// result 6.89 to 7.19

// query # repeat for "CC(C)C[C@H](CN)Nc1nc(Nc2ccnc(-c3ccccc3F)c2)c(C(N)=O)cc1F"
// result 6.70 to 6.89

// query Note, next up: "CC[C@@H](Nc1nc(Nc2cncc(F)c2)c(C(N)=O)cc1F)[C@H](C)N"
// result 6.89 to 7.19

---

test system: THP-1 cells; assay: TNFα generation assay; assay type: cell-based, human; conditions: Homo sapiens, THP-1, THP-1 cells; Table 22; read-out: IC50 in TNFα generation assay
pIC50: −log10 of the molar value.
assay_readout: pIC50

// query Returns the measured pIC50 for the input molecule. Input: CN(C)c1cccc(-c2cncc(Nc3nc(N[C@@H]4CCCC[C@@H]4N)c(F)cc3C(N)=O)c2)c1 (relative stereo) [Example 004-227]
// result 6.70 to 6.89

// query Another molecule: COCCn1ncc2cc(Nc3nc(N[C@H](CC(C)C)[C@H](C)N)c(F)cc3C(N)=O)ccc21 [Example 006-385]
// result 6.89 to 7.19

// query Another: CCOCCOCCn1ncc2cc(Nc3nc(N[C@@H]4CCCC[C@@H]4N)c(F)cc3C(N)=O)ccc21 (relative stereo) [Example 004-092]
// result 6.89 to 7.19

// query What about CC(=O)Nc1cccc2cc(Nc3nc(N[C@@H]4CCCC[C@@H]4N)c(F)cc3C(N)=O)cnc12 [Example 004-008] ?
// result > 7.19

// query CCc1cncc(Nc2nc(NC3CCCCC3N)c(F)cc2C(N)=O)c1 (stereo not drawn) [Example 002-038] , same question.
// result 6.89 to 7.19

// query Now the same for Cc1nn(C)c2ccc(Nc3nc(N[C@H](CC4CC4)[C@H](C)N)c(F)cc3C(N)=O)cc12 [Example 006-442]
// result > 7.19

// query Follow-up entry: CC[C@@H](Nc1nc(Nc2cncc(-c3ccccc3)c2)c(C(N)=O)cc1F)[C@H](C)N [Example 006-270]
// result > 7.19

// query Lookup C[C@H](N)[C@H](Nc1nc(Nc2ccc(N3CCOCC3)nc2)c(C(N)=O)cc1F)C1CC1 [Example 006-515]
// result 6.70 to 6.89

// query Now the molecule NC(=O)c1cc(F)c(N[C@@H]2CCCC[C@@H]2N)nc1Nc1cncc(-n2cccc2)c1 (relative stereo) [Example 006-123]
// result 6.70 to 6.89

// query Thanks! And NC(=O)c1cc(F)c(N[C@@H]2CCCC[C@@H]2N)nc1Nc1cnc2c(N3CCOCC3)cccc2c1 [Example 004-033] ?
// result 6.70 to 6.89

// query Request: CCCC[C@H](CN)Nc1nc(Nc2ccc3ncccc3c2)c(C(N)=O)cc1F [Example 006-274]
// result 6.89 to 7.19

// query Entry to check: CCn1ncc2cc(Nc3nc(N[C@H](CC4CC4)[C@H](C)N)c(F)cc3C(N)=O)ccc21 [Example 006-342]
// result > 7.19

// query Please give the result for Cc1nn(CC(F)F)c2ccc(Nc3nc(N[C@H](CC(C)C)[C@H](C)N)c(F)cc3C(N)=O)cc12 [Example 006-522] too.
// result > 7.19

// query Then what about the molecule CCC[C@@H](Nc1nc(Nc2cncc(-c3ccc(OC)cc3)c2)c(C(N)=O)cc1F)[C@H](C)N [Example 006-285] ?
// result 6.89 to 7.19

// query Likewise for COCCOc1cc(Nc2nc(N[C@H](CC3CC3)[C@H](C)N)c(F)cc2C(N)=O)ccn1 [Example 006-394] ?
// result 6.89 to 7.19
